Molecular target: Src enzyme (Homo sapiens)
Sequence (P12931 whole entry): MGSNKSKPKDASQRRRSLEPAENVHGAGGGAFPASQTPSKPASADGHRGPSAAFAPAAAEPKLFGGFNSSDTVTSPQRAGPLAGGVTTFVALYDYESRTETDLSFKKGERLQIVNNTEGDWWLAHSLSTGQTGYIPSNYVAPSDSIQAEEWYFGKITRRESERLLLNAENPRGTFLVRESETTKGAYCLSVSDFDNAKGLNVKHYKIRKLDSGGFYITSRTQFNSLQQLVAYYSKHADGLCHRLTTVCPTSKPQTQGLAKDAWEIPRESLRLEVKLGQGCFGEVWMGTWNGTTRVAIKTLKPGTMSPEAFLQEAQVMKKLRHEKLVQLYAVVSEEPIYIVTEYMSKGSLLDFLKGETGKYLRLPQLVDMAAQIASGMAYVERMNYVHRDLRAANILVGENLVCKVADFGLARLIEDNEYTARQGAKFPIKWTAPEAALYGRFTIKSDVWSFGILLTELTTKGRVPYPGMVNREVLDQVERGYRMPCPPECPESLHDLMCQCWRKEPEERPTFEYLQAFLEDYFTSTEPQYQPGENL
Assay: Src enzyme activity, IMAP fluorescence polarization assay
Conditions: 60 min pre-incubation, 4 μM ATP (Km)
pEC50: −log10 of the molar value.
assayReadout: pEC50

Some compounds with known pEC50 results, for comparison:
compound: C=CC(=O)N1CCC[C@H]1c1nc(-c2ccc(C(=O)Nc3cc(CC)ccn3)cc2)c2c(C)nccn12 [Example 14]
pEC50: ≤ 6.00
//
compound: CC#CC(=O)N[C@@H](C)c1nc(-c2ccc(C(=O)Nc3cc(CCC)ccn3)cc2)c2c(C)nccn12 [Example 38]
pEC50: ≤ 6.00
//
compound: Cc1nccn2c([C@@H]3CCCN3C(=O)/C=C/CN3CCCC3)nc(-c3ccc(C(=O)Nc4ccccn4)cc3)c12 [Example 25]
pEC50: ≤ 6.00

Briefly, pEC50 measured for CCCc1ccnc(NC(=O)c2ccc(-c3nc([C@@H]4CCCCN4C(=O)c4ccnc(Cl)n4)n4ccnc(C)c34)cc2)c1 [Example 5] : ≤ 6.00

###

Molecular target: Btk enzyme (His-Btk) (Homo sapiens)
Construct: His; purchased Millipore 14-552
Assay: Btk enzyme activity, IMAP fluorescence polarization assay
Type: biochemical
Conditions: 60 min pre-incubation, 5 μM ATP (Km); bin bounds given in nM
assayReadout: EC50

// solved cases for EC50 follow
compound: C=CC(=O)N1CCC[C@H]1c1nc(-c2ccc(C(=O)Nc3cc(C(F)(F)F)ccn3)cc2)c2c(C)nccn12 [Example 10]
targetOrSystem: Btk enzyme (His-Btk) (Homo sapiens)
EC50: < 10 nM
//
compound: C=CC(=O)N1CCCC[C@H]1c1nc(-c2ccc(C(=O)Nc3cc(CCC)ccn3)cc2)c2c(C)nccn12 [Example 2]
targetOrSystem: Btk enzyme (His-Btk) (Homo sapiens)
EC50: < 10 nM

Sample C=CC(=O)N[C@@H](C)c1nc(-c2ccc(C(=O)Nc3cc(CCC)ccn3)cc2)c2c(C)nccn12 [Example 23] ; EC50 observed: < 10 nM

###

Target: Lck enzyme (Homo sapiens, UniProt P06239)
Sequence (P06239 whole entry): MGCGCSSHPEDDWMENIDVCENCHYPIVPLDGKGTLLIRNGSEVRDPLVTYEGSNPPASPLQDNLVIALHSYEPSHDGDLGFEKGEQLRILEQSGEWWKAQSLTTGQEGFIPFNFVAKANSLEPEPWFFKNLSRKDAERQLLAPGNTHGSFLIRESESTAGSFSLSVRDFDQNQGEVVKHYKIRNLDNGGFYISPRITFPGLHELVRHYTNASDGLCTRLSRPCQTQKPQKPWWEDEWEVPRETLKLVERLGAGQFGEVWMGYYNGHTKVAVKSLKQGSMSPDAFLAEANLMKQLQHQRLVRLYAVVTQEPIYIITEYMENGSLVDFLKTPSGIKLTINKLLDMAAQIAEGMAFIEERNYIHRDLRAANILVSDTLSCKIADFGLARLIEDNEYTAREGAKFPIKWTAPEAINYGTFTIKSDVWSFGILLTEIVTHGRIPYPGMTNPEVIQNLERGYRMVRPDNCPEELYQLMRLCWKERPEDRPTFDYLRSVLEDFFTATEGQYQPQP
Experiment: Lck enzyme activity, IMAP fluorescence polarization assay
Conditions: 60 min pre-incubation, 6 μM ATP (Km)
pEC50: −log10 of the molar value.
assayReadout: pEC50

compound: CC#CC(=O)N1CCCC[C@H]1c1nc(-c2ccc(C(=O)Nc3cc(CCC)ccn3)cc2)c2c(C)nccn12 [Example 22]
targetOrSystem: Lck enzyme (Homo sapiens, UniProt P06239)
pEC50: ≤ 6.00

Please fill in: pEC50 reported for CC#CC(=O)N1CCC[C@H]1c1nc(-c2ccc(C(=O)Nc3cc(OC)ccn3)cc2)c2c(C)nccn12 [Example 16] = ≤ 6.00

Reported pEC50 of Cc1nccn2c([C@@H]3CCCN3C(=O)/C=C/CN(C)C)nc(-c3ccc(C(=O)Nc4ccccn4)cc3)c12 [Example 31] : ≤ 6.00

Item: C=CC(=O)N1CCCC[C@H]1c1nc(-c2ccc(C(=O)Nc3cc(CCC)ccn3)cc2)c2c(C)nccn12 [Example 2] | pEC50: ≤ 6.00

The reported value for CCCc1ccnc(NC(=O)c2ccc(-c3nc([C@H](C)N(C)C(=O)/C=C/CN(C)C)n4ccnc(C)c34)cc2)c1 [Example 18] in terms of pEC50 is ≤ 6.00

The value of pEC50 measured for the compound CC#CC(=O)N1CCCC[C@H]1c1nc(-c2ccc(C(=O)Nc3cc(C(F)(F)F)ccn3)cc2)c2c(C)nccn12 [Example 29] turned out to be ≤ 6.00

Query CC#CC(=O)N[C@@H](C)c1nc(-c2ccc(C(=O)Nc3cc(C(F)(F)F)ccn3)cc2)c2c(C)nccn12 [Example 7] yields pEC50 of ≤ 6.00

###

Molecular target: Btk enzyme (His-Btk) (Homo sapiens, UniProt Q06187)
Construct: His; purchased Millipore 14-552
Sequence (Q06187 whole entry): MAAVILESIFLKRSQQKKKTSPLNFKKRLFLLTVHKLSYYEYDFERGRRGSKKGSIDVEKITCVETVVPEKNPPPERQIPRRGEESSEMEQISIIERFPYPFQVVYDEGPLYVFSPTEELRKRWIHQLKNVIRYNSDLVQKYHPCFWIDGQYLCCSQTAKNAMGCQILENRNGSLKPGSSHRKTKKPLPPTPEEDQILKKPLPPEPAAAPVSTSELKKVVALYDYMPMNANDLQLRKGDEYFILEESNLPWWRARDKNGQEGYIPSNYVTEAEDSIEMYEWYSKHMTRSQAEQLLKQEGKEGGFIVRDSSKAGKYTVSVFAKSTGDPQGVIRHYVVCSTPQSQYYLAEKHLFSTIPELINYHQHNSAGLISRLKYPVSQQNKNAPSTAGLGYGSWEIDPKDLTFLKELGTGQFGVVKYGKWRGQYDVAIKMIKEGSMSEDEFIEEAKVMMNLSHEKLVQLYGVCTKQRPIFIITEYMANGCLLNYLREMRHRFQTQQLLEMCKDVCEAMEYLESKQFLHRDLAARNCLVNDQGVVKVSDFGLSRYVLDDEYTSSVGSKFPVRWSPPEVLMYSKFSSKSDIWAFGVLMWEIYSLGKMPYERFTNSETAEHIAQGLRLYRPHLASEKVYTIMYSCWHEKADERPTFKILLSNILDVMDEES
Assay: Btk enzyme activity, IMAP fluorescence polarization assay
Format: biochemical
Conditions: 60 min pre-incubation, 5 μM ATP (Km); bin bounds given in nM
assayReadout: EC50

Guide cases for EC50, answers given:
molecule: CCCc1ccnc(NC(=O)c2ccc(-c3nc([C@@H]4CCCCN4C(=O)/C=C/CN4CCCC4)n4ccnc(C)c34)cc2)c1 [Example 35]
EC50: < 10 nM

molecule: CC#CC(=O)N(C)[C@@H](C)c1nc(-c2ccc(C(=O)Nc3cc(CCC)ccn3)cc2)c2c(C)nccn12 [Example 24]
EC50: < 10 nM

molecule: C=CS(=O)(=O)N1CCCC[C@H]1c1nc(-c2ccc(C(=O)Nc3cc(CCC)ccn3)cc2)c2c(C)nccn12 [Example 4]
EC50: < 10 nM

Lab note: CCCc1ccnc(NC(=O)c2ccc(-c3nc([C@H](C)N(C)C(=O)/C=C/CN(C)C)n4ccnc(C)c34)cc2)c1 [Example 18] gave EC50 of < 10 nM

// EC50 lookup, molecule = C=CC(=O)N1CCC[C@H]1c1nc(-c2ccc(C(=O)Nc3cc(C#N)ccn3)cc2)c2c(C)nccn12 [Example 13] , result: < 10 nM

Value of EC50 reported for the molecule COC/C=C/C(=O)N[C@@H](C)c1nc(-c2ccc(C(=O)Nc3cc(C(F)(F)F)ccn3)cc2)c2c(C)nccn12 [Example 6] is < 10 nM

Kindly note the recorded EC50 for Cc1nccn2c([C@@H]3CCCN3C(=O)/C=C/CN3CCCC3)nc(-c3ccc(C(=O)Nc4ccccn4)cc3)c12 [Example 25] , which is ≥ 100 nM

Values compiled from patent US20140155406A1.
